For each entry below, report its pIC50 value.
Target: Gamma-secretase
Assay: Modulation of gamma secretase in HEK293 NdeltaE cells assessed as inhibition of notch signalling
Assay type: cell-based, Homo sapiens
pIC50: −log10 of the molar value.

Cc1cn(-c2ccc3n(c2=O)CCN(CCOc2ccc(Cl)cc2C(F)(F)F)C3=O)cn1	< 4.30

Then there is this molecule:
Q: Consider the molecule `Cc1cn(-c2ccc3n(c2=O)CCN(CCOc2ccc(F)cc2C(F)(F)F)C3=O)cn1` and give its recorded pIC50.
Result: < 4.30

---

Can you tell me Papp A→B for the items I'm about to list?
Assay: Passive apparent permeability from apical to basolateral side in RRCK cells
Assay type: ADME, cell-based, Canis lupus familiaris, MDCKII-LE
Settings: dog, MDCK
Please provide the amount together with its unit, number first.

Cc1cn(-c2ccc3n(c2=O)CCN(CCOc2ccc(Cl)cc2C(F)(F)F)C3=O)cn1	10.5 ×10⁻⁶ cm/s

Consider the following items and state reported Papp A→B for each.
1. Cc1cn(-c2ccc3c(c2O)CCN(Cc2cccc(C(F)(F)F)c2)C3=O)cn1
2. Cc1cn(-c2ccc3n(c2=O)CCN(CCOc2ccc(F)cc2C(F)(F)F)C3=O)cn1

Result:
10.4 ×10⁻⁶ cm/s
17.7 ×10⁻⁶ cm/s
